Where these numbers come from: patent US7056679

# Subject of test: T1, DGI-2 polypeptide (UniProt Q15004 1-111, limits assumed)
# T1 construct: Vector-derived residues or tag of pIVEX2.3 are not described for this construct; also called KIAA0101
# T1 sequence (looked up): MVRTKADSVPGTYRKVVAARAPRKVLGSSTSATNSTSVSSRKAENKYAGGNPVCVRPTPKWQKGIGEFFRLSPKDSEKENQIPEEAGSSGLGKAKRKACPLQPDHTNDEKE
# Test name: phage ELISA, 405 nm; DGI-2 signal over LDH signal
# DGI-2/LDH (OD) values compiled below
Unit ratio implied. Number only.

Here's what some known entries look like.
| Binder | DGI-2/LDH (OD) [ratio] |
| --- | --- |
| MGSLGPFGNINSLASGIGSVRNRPLLPLHGSPAAAGAPVPYPDPLEPRP (not shown: phage gene III coat protein (pCANTAB5E)) [DGI-2-40F-3-D72] | 2.8 |
| TANGHRYGGCGLWCKWMSGMAAAGAPVPYPDPLEPRP (not shown: phage gene III coat protein (pCANTAB5E)) [DGI-2-20R-4-E2] | 2.5 |
| TPDRCLIYSSIQCLLEYSARRGSADAAAGAPVPYPDPLEPRP (not shown: phage gene III coat protein (pCANTAB5E)) [DGI-2-20C-3-C65] | 1.8 |
| LHRLGQSMGGTLDHLQGWGVAAAGAPVPYPDPLEPRP (not shown: phage gene III coat protein (pCANTAB5E)) [DGI-2-20R-4-E5] | 1.1 |
| YDQVWNSLLAAVLGGQELVNAAAGAPVPYPDPLEPRP (not shown: phage gene III coat protein (pCANTAB5E)) [DGI-2-20F-3-D112] | 1.4 |
| DGI-2-40F-3-B4 (not shown: phage gene III coat protein (pCANTAB5E)) peptide: LWLPCGLLVRPAQFYFYFSPLRHFLSSSVGSLSFPLSLLVAAAGAPVPYPDPLEPRP | 1.1 |
| DGI-2-40F-3-B116 (not shown: phage gene III coat protein (pCANTAB5E)) peptide: GVVRAQQGLRYELQGDRYRLRRTQWLTVTYCSPSWAFAGCAAAGAPVPYPDPLEPRP | 2 |
| DAGIGWVGSMWFPPGCIGACAAAGAPVPYPDPLEPRP (not shown: phage gene III coat protein (pCANTAB5E)) [DGI-2-20R-4-E82] | 3.7 |
| DGI-2-40F-3-B95 (not shown: phage gene III coat protein (pCANTAB5E)) peptide: DYKTCVSQHVHPLFGEYFYHKVTHMSILSPTFRVTSLYGKAAAGAPVPYPDPLEPRP | 1.2 |
| DGI-2-40F-3-A1 (SEQ ID NO: 187) (not shown: phage gene III coat protein (pCANTAB5E)) peptide: QYFARGSFQFGLSHVLSAAAAFHLYVFCKRLSRGFGIKDDAAAGAPVPYPDPLEPRP | 1.1 |

For the next question, use this binder.
Enquiry: Query (binder): LQIVRPAGWKMPGQVGYYIGAAAGAPVPYPDPLEPRP (not shown: phage gene III coat protein (pCANTAB5E)) [DGI-2-20R-3-A9] ; field requested: DGI-2/LDH (OD)
Return: 3.4
